Run description: soluble fraction after stress (log2 fold change); higher = more stays soluble; pooled small domains, quantitative proteomics
Measurement conditions: stress: 50 degC
Measurement name: soluble fraction (log2)
Reply with the value as a number alone.

HMGRLEVDLVVPYDKYEAMNVIRAEGRILKEDHQGDGAHLKIQINETALWKLKRMLGEGYGQ ... -0.157
HMHLPDNAVSIISELKMTPEEVLELIGKLPHDFLFLPYSQRKKIIVDLIPNKDYKLLMSLIKKFML ... -1.12

Query: Give soluble fraction (log2) for the following sequence: `HMLISYRVDALANEAGLSVDTIRYYQKLGILDPPKRTGRHSEYSPDHLERLIEIRRLADAGLTLSQISEI`
Response: -2.46

Query: Give soluble fraction (log2) for the following sequence: `HMAGAPANLAARLREQILQGAYHDGQRLPAERHLAAEHGVSRGTVREALRLLEQGALLTRKRGSGSYVTYP`
Response: -0.314

Query: Give soluble fraction (log2) for the following sequence: `HMAETLRLVGATNLNTLARARHPDDLAARNEFRRAIAQANPALFAGKSKVGSVSLPAGTVLALPPEV`
Response: 0.184

Query: Give soluble fraction (log2) for the following sequence: `HMAGIPIHMSQLKQIILLLSQGYPIKGIARETGVSRNTIKGYLQTLTSQDLNVTDALKLENIQLEYLLRSP`
Response: -1.65

Query: Give soluble fraction (log2) for the following sequence: `HMTNQEFNEVFKLLLAAYPNTKDKESVATIYFLTIANELTKKEFAEAVVKILKTRKSGFIPQPAEILEVAK`
Response: -0.67

Query: Give soluble fraction (log2) for the following sequence: `HMEDTSTLSIKHKIKELINQESPQAILSDDKLVELLAAQGIKIARRTIAKYRETMNIPTSAERKRQKRPP`
Response: 0.479

Query: Give soluble fraction (log2) for the following sequence: `HMDSPVEEWANRGLAYDPSLVTETMAKLYAKQGQIGLARKAFKRLALIYPEKSVYFAFQLKKLSNN`
Response: -1.63

====

Run description: soluble fraction after stress (log2 fold change); higher = more stays soluble; pooled small domains, quantitative proteomics
Measurement conditions: stress: 50 degC
Measurement name: soluble fraction (log2)
Reply with the value as a number alone.

HMQILPAFLPENPELRARLANHSLEELTEILKQYKTLHNSTDVDTVKRAIRAIEIEEYYAVHPV ... -0.777
HMPTLSKVGSQGEEVRQIQTKLKNWGYLNDRVDGIYGPKTRDAVIWFQKKNGLVADGIAGPATLKAMGIFT ... 0.0925
HMNEIEIHINKLFGKISDSKRKQELMQEITQNLNEKVSDLVSQGQTREQAVKKAIEDFGDIDDLKDELDN ... 0.275
HMDTERLYAYAWQTHLKQFGLNISEEEIRQFVGVDDRIVHSFYAKTVPLDDFENTMFSLGEIIQQSL ... -2.99
HMLTIQNYFNQVKNIDWEQVPAALSKGHQLVEGASQNNWSAYHSNANIQRVVEAYFQKLNDYLEKN ... -0.191
HMQWQPSEEAMQRLEQHGIPRAFSFSQLDAFVLQGQEQGSNRNDWNTRFFRFIKNQWVYAQN ... -1.62
HMNINVRNTGIKAVENNIINLSSDQRTFTWASNDRKLITVPFDENPYSALAAWFKTDEGIEVYQTIEKKL ... -0.115
HMLTAHEAILKELRKMLLTGVLSPGEAVRPEIIGESFGVSAVPVREALRILEGEGQVLNRPHKGYVVT ... -0.568

Query: Give soluble fraction (log2) for the following sequence: `HMKPTVKVPNVVNLSLRNAQIQLQNYGLEVGSISYESSRFKNAVLRQSISEGSVVEKGTTINLVISDGL`
Response: -0.203

Query: Give soluble fraction (log2) for the following sequence: `HMETYTVPEVLGLTPEQAAQLPEVKDIFTLDVKEEGDFSDKPVGTIVRQSPTEGEHRKGDNLVIEVWLSV`
Response: -0.0593
